# SUBJECT_OF_TEST: T1, human PD-1 (#PD1-H82E4, AcroBiosystems) (human, UniProt Q15116 25-167)
# T1 construct: bought
# PROTOCOL_SUMMARY: SPR, PD-1 on captured IgG1
Sorting guide: entries reporting koff beneath 0.0002 s⁻¹ go in the condition met pile, the rest go in the condition not met pile.

Answered cases to consult:
# BINDER, LABEL_VALUE
rows = [
    ("KWH245 (antibody, human IgG1, V domains shown, human IgG1) VH: EVQLLESGGGLVQPGGSLRLSCAASGFTFSINAMTWVRQAPGKGLEWVSTISGSGFSTYYADSLKGRFTISRDNSKNTLYLQMNSLRAEDTAVYYCAKEVYGDYWGQGTLVTVSS VL: RSVLTQPPSASGTPGQRVSISCSGASSNIGSQSVFTYQQLPGTAPKLLIYSNNQRPSGVPDRFSGSKSGTSASLAISGLRSEDEADYYCAAWDDSLSIWVFGGGTKLTVL", "condition not met"),
    ("GDY271 (antibody, human IgG1, V domains shown, human IgG1) VH: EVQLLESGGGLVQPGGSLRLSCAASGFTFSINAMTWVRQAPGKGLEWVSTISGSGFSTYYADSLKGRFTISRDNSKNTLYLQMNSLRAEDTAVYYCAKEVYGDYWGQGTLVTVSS VL: RSVLTQPPSASGTPGQRVSISCSGASSNIGSQSVYWYQQLPGTAPKLLIYSNNQRPSGVPDRFSGSKSGTSASLAISGLRSEDEADYYCAAWDDSLSIWVFGGGTKLTVL", "condition not met"),
    ("JZW468 (antibody, human IgG1, V domains shown, human IgG1) VH: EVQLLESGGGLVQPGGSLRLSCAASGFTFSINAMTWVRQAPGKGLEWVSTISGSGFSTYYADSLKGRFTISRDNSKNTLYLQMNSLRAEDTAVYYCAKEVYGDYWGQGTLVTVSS VL: RSVLTQPPSASGTPGQRVSISCSGASSNIGSQSVFWYQQLPGTAPKLLIYSNNQRPSGVPDRFSGSKSGTSASLAISGLRSEDEADYYCAAWDDQLSIWVFGGGTKLTVL", "condition met"),
    ("JOH712 (antibody, human IgG1, V domains shown, human IgG1) VH: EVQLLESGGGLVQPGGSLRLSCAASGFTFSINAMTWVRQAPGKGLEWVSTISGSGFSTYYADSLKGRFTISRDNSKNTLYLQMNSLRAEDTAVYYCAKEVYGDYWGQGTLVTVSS VL: RSVLTQPPSASGTPGQRVSISCSGASSNIGSQSVFWYQQHPGTAPKLLIYSNNQRPSGVPDRFSGSKSGTSASLAISGLRSEDEADYYCAAWDDSLSIWVFGGGTKLTVL", "condition met"),
]

Asked: Consider GZZ692 (antibody, human IgG1, V domains shown, human IgG1) VH: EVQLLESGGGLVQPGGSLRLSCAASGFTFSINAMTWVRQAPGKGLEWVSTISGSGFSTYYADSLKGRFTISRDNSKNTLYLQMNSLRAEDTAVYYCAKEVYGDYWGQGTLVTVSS VL: RSVLTQPPSASGTPGQRVSISCSGASSNIGSQSVFWYQQLPGTAPKLLGYSNNQRPSGVPDRFSGSKSGTSASLAISGLRSEDEADYYCAAWDDSLSIWVFGGGTKLTVL . Does its koff lie strictly below 0.0002 s⁻¹?
Given back: condition not met

Where these numbers come from: patent EP4671273A1
